Kd by entry:
Experimental target: RBD-FH, monomeric RBD (332-534) with a FLAG peptide and an 8xHis-tag at the C-terminus (SARS-CoV-2, UniProt P0DTC2 332-534)
Endpoint label: Kd

| Binder | Value observed |
| --- | --- |
| Nb 2.1 (VHH) VHH: QVQLVESGGGSVQAGGSLRLSCAAFGATISSAHMGWFRQAPGKEREGVAFRYTDGSSTYYTTSVRGRFTISQDNAKNTVYLQMNSLKPEDTAMYYCASNPSWGRLVGGQYNNWGQGTQITVSS | 1.74 nM |
| Nb 1.29 (VHH) VHH: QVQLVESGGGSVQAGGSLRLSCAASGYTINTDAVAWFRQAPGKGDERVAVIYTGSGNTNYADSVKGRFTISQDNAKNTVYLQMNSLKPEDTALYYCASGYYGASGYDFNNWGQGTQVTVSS | 12.9 nM |

Reference source for all entries: patent EP4242225A1
